The origin of these recorded values is patent US5792784A.

Collected MDA per mg of linoleic acid values appear next to each entry.
ASSAY PROCEDURE: Inhibition of linoleic acid peroxidation (Fe/ascorbic acid; TBA/MDA)
Type: biochemical
APPLIED CONDITIONS: 25 mM (mixture: 25 mM each); linoleic acid 0.25 mg/ml; control 7.95

In plain terms, NCCc1c[nH]cn1 [Histamine, histamine] has a documented MDA per mg of linoleic acid of 10.15 mol MDA per mg of linoleic aci

====

ASSAY PROCEDURE: Inhibition of linoleic acid peroxidation (Fe/ascorbic acid; TBA/MDA)
Format: biochemical
APPLIED CONDITIONS: 25 mM (mixture: 25 mM each); linoleic acid 0.25 mg/ml; control 7.95
METRIC: MDA per mg of linoleic acid

Solved cases below.
{"MOLECULE": "c1c[nH]cn1 [Imidazole]", "MDA per mg of linoleic acid": "6.95 mol MDA per mg of linoleic aci"}
{"MOLECULE": "NCCC(=O)O [β-alanine]", "MDA per mg of linoleic acid": "7.91 mol MDA per mg of linoleic aci"}
{"MOLECULE": "NCCC(=O)N[C@@H](Cc1c[nH]cn1)C(=O)O [L-carnosine, β-alanyl-histidine, reference compound]", "MDA per mg of linoleic acid": "3.24 mol MDA per mg of linoleic aci"}

The recorded MDA per mg of linoleic acid for NCCC(=O)NCCc1c[nH]cn1 [β-alanyl-histamine] is 4.25 mol MDA per mg of linoleic aci
